# Test system: K. pneumoniae ATCC13883
Some molecules, each annotated with its measured MIC.
assay-metric: MIC (µg/mL)

1. C[C@H](O)c1nccn1Cc1cc(-c2ccc(C#CC3=CCN(C(=O)c4ccncc4)CC3)cc2)on1 [Example 33]	2
2. C[C@H](O)c1nccn1Cc1cc(-c2ccc(C#CC3CC4(CCN(C=O)C4)C3)cc2)on1 (stereo partly shown) [Example 23]	4
3. C[C@H](O)c1nccn1Cc1cc(-c2ccc(C#CC3CC4(CCN(Cc5ccn[nH]5)CC4)C3)cc2)on1 [Example 25]	4
4. C[C@H](O)c1nccn1Cc1cc(-c2ccc(C#CC3CC4(CCN(CC(N)=O)CC4)C3)cc2)on1 [Example 13]	1

====

Some compounds, each annotated with its measured IC50.
# target-system: recombinant Pseudomonas aeruginosa LpxC (Pseudomonas aeruginosa, UniProt P47205)
# protocol-details: Inhibition of enzymatic activity of recombinant Pseudomonas aeruginosa LpxC in vitro
# protocol-conditions: 5 nM LpxC; substrate UDP-3-O—(R-3-hydroxydecanoyl)-GlcNAc; 25 °C, 120 minutes; fluorescamine readout
assay-metric: IC50 (µM)

1) C[C@H](O)c1nccn1Cc1cc(-c2ccc(C#CC3CC4(CCN(Cc5ccn[nH]5)CC4)C3)cc2)on1	0.00728
2) C[C@H](O)c1nccn1Cc1cc(-c2ccc(C#CC3CC4(C3)CN(C=O)C4)cc2)on1	0.00654
3) C[C@H](O)c1nccn1Cc1cc(-c2ccc(C#CC3=CCN(C(=O)C4CCOC4)CC3)cc2)on1 (stereo partly shown)	0.0223
4) C[C@H](O)c1nccn1Cc1cc(-c2ccc(C#CC3CC4(CCN(CCC(N)=O)CC4)C3)cc2)on1	0.0188
5) C[C@H](O)c1nccn1Cc1cc(-c2ccc(C#CC3CC4(CCN(C(=O)CO)C4)C3)cc2)on1 (stereo partly shown)	0.0141
6) C[C@H](O)c1nccn1Cc1cc(-c2ccc(C#CC3CC4(CCN(CC(=O)O)CC4)C3)cc2)on1	0.0228
7) C[C@H](O)c1nccn1Cc1cc(-c2ccc(C#CC3=CCN(C(=O)C4(O)CC4)CC3)cc2)on1	0.0208

====

Some compounds, each annotated with its measured MIC.
# System: E. coli ATCC 25922
assay-metric: MIC (µg/mL)

1. C[C@H](O)c1nccn1Cc1cc(-c2ccc(C#CC3CC4(C3)CN(CC(N)=O)C4)cc2)on1	2
2. C[C@H](O)c1nccn1Cc1cc(-c2ccc(C#CC3=CCN(C(=O)C4COCCN4)CC3)cc2)on1 (stereo partly shown)	4
3. C[C@H](O)c1nccn1Cc1cc(-c2ccc(C#CC3=CCN(C(=O)C4CCOC4)CC3)cc2)on1 (stereo partly shown)	1
4. C[C@H](O)c1nccn1Cc1cc(-c2ccc(C#CC3CC4(CCN(C(=O)CC#N)CC4)C3)cc2)on1	2
5. C[C@H](O)c1nccn1Cc1cc(-c2ccc(C#CC3CC4(CCN(C(N)=O)CC4)C3)cc2)on1	2
6. C[C@H](O)c1nccn1Cc1cc(-c2ccc(C#CC3=CCN(C=O)CC3)cc2)on1	2
7. C[C@H](O)c1nccn1Cc1cc(-c2ccc(C#CC3=CCN(C(=O)c4ccnnc4)CC3)cc2)on1	2

====

# Tested on: E. coli ATCC 25922
assay-metric: MIC

1. C[C@H](O)c1nccn1Cc1cc(-c2ccc(C#CC3=CCN(C(=O)C4[C@H]5CCC[C@@H]45)CC3)cc2)on1 (stereo partly shown)	2 µg/mL
2. C[C@H](O)c1nccn1Cc1cc(-c2ccc(C#CC3=CCN(C(=O)N4CCOCC4)CC3)cc2)on1	2 µg/mL
3. C[C@H](O)c1nccn1Cc1cc(-c2ccc(C#CC3=CCN(C(N)=O)CC3)cc2)on1	1 µg/mL
4. C[C@H](O)c1nccn1Cc1cc(-c2ccc(C#CC3=CCN(C(=O)c4cccnc4)CC3)cc2)on1	1 µg/mL
5. C[C@H](O)c1nccn1Cc1cc(-c2ccc(C#CC3CC4(C3)CN(C(=O)c3ncn[nH]3)C4)cc2)on1	2 µg/mL
6. C[C@H](O)c1nccn1Cc1cc(-c2ccc(C#CC3=CCN(C(=O)C4CC4)CC3)cc2)on1	1 µg/mL
7. C[C@H](O)c1nccn1Cc1cc(-c2ccc(C#CC3=CCN(CC(N)=O)CC3)cc2)on1	2 µg/mL

====

Quick record: MIC, E. coli ATCC 25922.
assay-metric: MIC (µg/mL)

1. C[C@H](O)c1nccn1Cc1cc(-c2ccc(C#CC3CC4(C3)CN(CCn3cncn3)C4)cc2)on1	2
2. C[C@H](O)c1nccn1Cc1cc(-c2ccc(C#CC3CC4(CCN(CC(N)=O)CC4)C3)cc2)on1	1
3. CNC(=O)N1CC2(CC(C#Cc3ccc(-c4cc(Cn5ccnc5[C@H](C)O)no4)cc3)C2)C1	2
4. C[C@H](O)c1nccn1Cc1cc(-c2ccc(C#CC3=CCN(Cc4ccc(C(=O)O)cc4)CC3)cc2)on1	2
5. C[C@H](O)c1nccn1Cc1cc(-c2ccc(C#CC3=CCN(C(=O)C4CCCCO4)CC3)cc2)on1 (stereo partly shown)	2
6. C[C@H](O)c1nccn1Cc1cc(-c2ccc(C#CC3CC4(C3)CN(C(=O)n3ccnc3)C4)cc2)on1	2
7. C[C@H](O)c1nccn1Cc1cc(-c2ccc(C#CC3CC4(C3)CN(C=O)C4)cc2)on1	1

====

# target-system: recombinant Pseudomonas aeruginosa LpxC (Pseudomonas aeruginosa)
# protocol-details: Inhibition of enzymatic activity of recombinant Pseudomonas aeruginosa LpxC in vitro
# protocol-conditions: 5 nM LpxC; substrate UDP-3-O—(R-3-hydroxydecanoyl)-GlcNAc; 25 °C, 120 minutes; fluorescamine readout
pIC50: −log10 of the molar value.
Parameter threshold = 8. Response is Fulfilled when pIC50 meets or exceeds it, else Not fulfilled.

1. C[C@H](O)c1nccn1Cc1cc(-c2ccc(C#CC3=CCN(C(=O)N4CCOCC4)CC3)cc2)on1	Not fulfilled
2. C[C@H](O)c1nccn1Cc1cc(-c2ccc(C#CC3CC4(CCN(C(=O)[C@@H](N)CO)CC4)C3)cc2)on1	Fulfilled
3. C[C@H](O)c1nccn1Cc1cc(-c2ccc(C#CC3=CCN(C(=O)c4cncnc4)CC3)cc2)on1	Not fulfilled
4. C[C@H](O)c1nccn1Cc1cc(-c2ccc(C#CC3CC4(C3)CN(C(N)=O)C4)cc2)on1	Fulfilled

====

Quick record: MIC, K. pneumoniae ATCC13883.
assay-metric: MIC (µg/mL)

1. C[C@H](O)c1nccn1Cc1cc(-c2ccc(C#CC3CC4(C3)CN(C=O)C4)cc2)on1 [Example 22]	4
2. C[C@H](O)c1nccn1Cc1cc(-c2ccc(C#CC3CC4(CCN(C(N)=O)CC4)C3)cc2)on1 [Example 19]	4
3. CNC(=O)N1CC2(CC(C#Cc3ccc(-c4cc(Cn5ccnc5[C@H](C)O)no4)cc3)C2)C1 [Example 47]	2
4. C[C@H](O)c1nccn1Cc1cc(-c2ccc(C#CC3CC4(CCN(C(=O)CO)CC4)C3)cc2)on1 [Example 12]	4
5. C[C@H](O)c1nccn1Cc1cc(-c2ccc(C#CC3CC4(C3)CN(CCn3cncn3)C4)cc2)on1 [Example 53]	8
6. C[C@H](O)c1nccn1Cc1cc(-c2ccc(C#CC3CC4(C3)CN(C(=O)n3ccnc3)C4)cc2)on1 [Example 48]	2
7. C[C@H](O)c1nccn1Cc1cc(-c2ccc(C#CC3CC4(CCN(C=O)CC4)C3)cc2)on1 [Example 17]	2
8. C[C@H](O)c1nccn1Cc1cc(-c2ccc(C#CC3CC4(CCN(Cc5ncc[nH]5)CC4)C3)cc2)on1 [Example 27]	4
9. C[C@H](O)c1nccn1Cc1cc(-c2ccc(C#CC3CC4(C3)CN(Cc3ncco3)C4)cc2)on1 [Example 52]	2
10. C[C@H](O)c1nccn1Cc1cc(-c2ccc(C#CC3CC4(C3)CN(C3CC(C#N)C3)C4)cc2)on1 (stereo partly drawn) [Example 49]	2
11. C[C@H](O)c1nccn1Cc1cc(-c2ccc(C#CC3CC4(C3)CN(CC(N)=O)C4)cc2)on1 [Example 20]	4
12. C[C@H](O)c1nccn1Cc1cc(-c2ccc(C#CC3CC4(C3)CN(C(=O)CO)C4)cc2)on1 [Example 26]	2
13. C[C@H](O)c1nccn1Cc1cc(-c2ccc(C#CC3CC4(C3)CN(C(N)=O)C4)cc2)on1 [Example 21]	4
14. C[C@H](O)c1nccn1Cc1cc(-c2ccc(C#CC3CC4(CCN(C(=O)CC#N)CC4)C3)cc2)on1 [Example 29]	4
15. C[C@H](O)c1nccn1Cc1cc(-c2ccc(C#CC3=CCN(Cc4ccc(C(=O)O)cc4)CC3)cc2)on1 [Example 34]	4

====

# target-system: recombinant Pseudomonas aeruginosa LpxC (Pseudomonas aeruginosa, UniProt P47205)
# Sequence (P47205 1-303): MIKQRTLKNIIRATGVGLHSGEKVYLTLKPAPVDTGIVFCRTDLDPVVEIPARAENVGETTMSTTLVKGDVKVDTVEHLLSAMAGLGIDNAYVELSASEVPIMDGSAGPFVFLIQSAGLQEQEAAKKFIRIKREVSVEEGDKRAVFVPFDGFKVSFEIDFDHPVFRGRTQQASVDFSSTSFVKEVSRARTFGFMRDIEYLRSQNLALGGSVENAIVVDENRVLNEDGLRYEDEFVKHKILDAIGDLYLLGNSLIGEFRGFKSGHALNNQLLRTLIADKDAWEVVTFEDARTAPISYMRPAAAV
# protocol-details: Inhibition of enzymatic activity of recombinant Pseudomonas aeruginosa LpxC in vitro
# protocol-conditions: 5 nM LpxC; substrate UDP-3-O—(R-3-hydroxydecanoyl)-GlcNAc; 25 °C, 120 minutes; fluorescamine readout
# Experimental: The following method was used to determine degrees of inhibition of the compounds of the present invention on the enzymatic activity of recombinant Pseudomonas aeruginosa LpxC in vitro. The test process was briefly described as follows: the tested compound was first dissolved in DMSO to prepare a 10 mM storage solution. […] Finally, 50 μL of 200 mM sodium phosphate buffer solution (pH 8.0) was added to stop the reaction, and a microplate reader (BMG) was used for reading. […]
Lab note: compare IC50 with 10 nM, writing met if less and not met if equal or more.

1. C[C@H](O)c1nccn1Cc1cc(-c2ccc(C#CC3CC4(CCNCC4)C3)cc2)on1	met
2. C[C@H](O)c1nccn1Cc1cc(-c2ccc(C#CC3=CCN(C(=O)C4CC4)CC3)cc2)on1	not met
3. COCC(=O)N1CC=C(C#Cc2ccc(-c3cc(Cn4ccnc4[C@H](C)O)no3)cc2)CC1	not met
4. C[C@H](O)c1nccn1Cc1cc(-c2ccc(C#CC3CC4(C3)CN(C(=O)n3ccnc3)C4)cc2)on1	not met
5. C[C@H](O)c1nccn1Cc1cc(-c2ccc(C#CC3CC4(CCN(C(N)=O)CC4)C3)cc2)on1	met
6. C[C@H](O)c1nccn1Cc1cc(-c2ccc(C#CC3=CCN(C(=O)c4ccccn4)CC3)cc2)on1	not met
7. C[C@H](O)c1nccn1Cc1cc(-c2ccc(C#CC3CC4(C3)CN(C(=O)C3CCNC(=O)C3)C4)cc2)on1 (stereo partly shown)	not met
